Overview of recorded fold change of affinity for various binders
- MEASURED ON: T1, Human CD137 ECD (human)
- T1 construct: also called 4-1BB
- TEST NAME: single mutant vs template dBBDu183H
Your answer should be a plain number; it is taken to be in fold.

These recorded examples may help you get a feel for the data.
BINDER | UNIT ABBREV | OBSERVED VALUE
H183/L072 VH Y94M (antibody, name in Kabat numbering, V domains shown) VH: QVQLVESGGGLVQPGRSLRLSCAASGFTFSNAWMHWVRQAPGKGLEWVAQIKDKGNAYAAYYAPSVKGRFTISRDDSKNSIYLQMNSLKTEDTAVYYCHMVHYASASTVLPAFGVDAWGQGTTVTVSS VL: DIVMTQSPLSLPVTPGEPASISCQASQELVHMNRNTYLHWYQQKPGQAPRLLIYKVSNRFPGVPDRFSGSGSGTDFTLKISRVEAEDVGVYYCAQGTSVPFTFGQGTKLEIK | fold | 3.2
H183/L072 VH H96M (antibody, name in Kabat numbering, V domains shown) VH: QVQLVESGGGLVQPGRSLRLSCAASGFTFSNAWMHWVRQAPGKGLEWVAQIKDKGNAYAAYYAPSVKGRFTISRDDSKNSIYLQMNSLKTEDTAVYYCHYVMYASASTVLPAFGVDAWGQGTTVTVSS VL: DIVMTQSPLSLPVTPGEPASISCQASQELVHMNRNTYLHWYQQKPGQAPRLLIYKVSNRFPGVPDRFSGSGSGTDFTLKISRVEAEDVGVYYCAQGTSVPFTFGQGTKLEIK | fold | 1.4
H183/L072 VH F27Y (antibody, name in Kabat numbering, V domains shown) VH: QVQLVESGGGLVQPGRSLRLSCAASGYTFSNAWMHWVRQAPGKGLEWVAQIKDKGNAYAAYYAPSVKGRFTISRDDSKNSIYLQMNSLKTEDTAVYYCHYVHYASASTVLPAFGVDAWGQGTTVTVSS VL: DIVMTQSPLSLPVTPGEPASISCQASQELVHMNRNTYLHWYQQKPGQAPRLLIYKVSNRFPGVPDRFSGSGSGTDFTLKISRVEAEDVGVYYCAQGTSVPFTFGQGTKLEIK | fold | 0.4
H183/L072 VH G26I (antibody, name in Kabat numbering, V domains shown) VH: QVQLVESGGGLVQPGRSLRLSCAASIFTFSNAWMHWVRQAPGKGLEWVAQIKDKGNAYAAYYAPSVKGRFTISRDDSKNSIYLQMNSLKTEDTAVYYCHYVHYASASTVLPAFGVDAWGQGTTVTVSS VL: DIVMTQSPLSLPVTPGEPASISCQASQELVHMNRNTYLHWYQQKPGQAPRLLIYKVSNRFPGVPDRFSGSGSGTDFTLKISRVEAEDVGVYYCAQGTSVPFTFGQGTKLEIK | fold | 0.3
H183/L072 VH A60F (antibody, name in Kabat numbering, V domains shown) VH: QVQLVESGGGLVQPGRSLRLSCAASGFTFSNAWMHWVRQAPGKGLEWVAQIKDKGNAYAAYYFPSVKGRFTISRDDSKNSIYLQMNSLKTEDTAVYYCHYVHYASASTVLPAFGVDAWGQGTTVTVSS VL: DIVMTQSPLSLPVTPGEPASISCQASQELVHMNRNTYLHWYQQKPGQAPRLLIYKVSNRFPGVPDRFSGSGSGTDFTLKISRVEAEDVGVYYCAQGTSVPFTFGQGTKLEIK | fold | 1.2
H183/L072 VH P100eA (antibody, name in Kabat numbering, V domains shown) VH: QVQLVESGGGLVQPGRSLRLSCAASGFTFSNAWMHWVRQAPGKGLEWVAQIKDKGNAYAAYYAPSVKGRFTISRDDSKNSIYLQMNSLKTEDTAVYYCHYVHYASASTVLAAFGVDAWGQGTTVTVSS VL: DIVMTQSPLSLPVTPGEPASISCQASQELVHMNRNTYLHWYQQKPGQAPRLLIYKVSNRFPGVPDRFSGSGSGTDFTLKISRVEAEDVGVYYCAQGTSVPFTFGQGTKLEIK | fold | 0.5

**Query** Quick one: give measured fold change of affinity for H183/L072 VH Y97L (antibody, name in Kabat numbering, V domains shown) VH: QVQLVESGGGLVQPGRSLRLSCAASGFTFSNAWMHWVRQAPGKGLEWVAQIKDKGNAYAAYYAPSVKGRFTISRDDSKNSIYLQMNSLKTEDTAVYYCHYVHLASASTVLPAFGVDAWGQGTTVTVSS VL: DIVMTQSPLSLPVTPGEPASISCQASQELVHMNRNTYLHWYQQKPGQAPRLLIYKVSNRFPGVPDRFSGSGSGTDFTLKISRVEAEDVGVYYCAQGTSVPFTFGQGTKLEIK
**Result** 0

**Query** Entry H183/L072 VH S99A (antibody, name in Kabat numbering, V domains shown) VH: QVQLVESGGGLVQPGRSLRLSCAASGFTFSNAWMHWVRQAPGKGLEWVAQIKDKGNAYAAYYAPSVKGRFTISRDDSKNSIYLQMNSLKTEDTAVYYCHYVHYAAASTVLPAFGVDAWGQGTTVTVSS VL: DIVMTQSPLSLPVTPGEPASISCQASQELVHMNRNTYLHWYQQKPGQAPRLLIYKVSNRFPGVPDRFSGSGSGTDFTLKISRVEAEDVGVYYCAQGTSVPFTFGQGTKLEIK needs its fold change of affinity filled in; supply it.
**Result** 1.4

**Query** For the binder H183/L072 VH F27G (antibody, name in Kabat numbering, V domains shown) VH: QVQLVESGGGLVQPGRSLRLSCAASGGTFSNAWMHWVRQAPGKGLEWVAQIKDKGNAYAAYYAPSVKGRFTISRDDSKNSIYLQMNSLKTEDTAVYYCHYVHYASASTVLPAFGVDAWGQGTTVTVSS VL: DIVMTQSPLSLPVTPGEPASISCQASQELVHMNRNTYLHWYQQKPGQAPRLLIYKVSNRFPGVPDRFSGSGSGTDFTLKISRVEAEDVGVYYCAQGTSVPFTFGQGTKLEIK , give its measured fold change of affinity value.
**Result** 0.4

**Query** Supply recorded fold change of affinity for H183/L072 VH S30P (antibody, name in Kabat numbering, V domains shown) VH: QVQLVESGGGLVQPGRSLRLSCAASGFTFPNAWMHWVRQAPGKGLEWVAQIKDKGNAYAAYYAPSVKGRFTISRDDSKNSIYLQMNSLKTEDTAVYYCHYVHYASASTVLPAFGVDAWGQGTTVTVSS VL: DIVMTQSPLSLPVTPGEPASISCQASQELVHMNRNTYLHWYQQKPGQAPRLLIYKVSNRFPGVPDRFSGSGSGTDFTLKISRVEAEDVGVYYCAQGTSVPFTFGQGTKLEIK here.
**Result** 0.9

Attribution: patent US20210388087A1
